# method: in vitro
# Type: in vitro ADME
# condition.set: human, microsomes, pH 7.4, Intrinsic clearance (CLint)
readout: microsomal CLint (µL/min/mg)
# number only, unit µL/min/mg dropped from output

Value lookup for microsomal CLint; key = O=c1ccc2cc3ccoc3c(O)c2o1
60

* * *

# method: in vitro
# Format: in vitro ADME
# condition.set: human, pH 7.4
readout: Km at 30 min (µM)
Please give a number only; it is taken to be in µM.

What value of Km at 30 min has been reported for the following compound? O=c1ccc2cc3ccoc3c(O)c2o1 [xanthotoxol, Xanthotoxol]
8.46

* * *

# measured.on: CYP3A4 (Homo sapiens, UniProt P08684)
# Sequence (P08684 whole entry): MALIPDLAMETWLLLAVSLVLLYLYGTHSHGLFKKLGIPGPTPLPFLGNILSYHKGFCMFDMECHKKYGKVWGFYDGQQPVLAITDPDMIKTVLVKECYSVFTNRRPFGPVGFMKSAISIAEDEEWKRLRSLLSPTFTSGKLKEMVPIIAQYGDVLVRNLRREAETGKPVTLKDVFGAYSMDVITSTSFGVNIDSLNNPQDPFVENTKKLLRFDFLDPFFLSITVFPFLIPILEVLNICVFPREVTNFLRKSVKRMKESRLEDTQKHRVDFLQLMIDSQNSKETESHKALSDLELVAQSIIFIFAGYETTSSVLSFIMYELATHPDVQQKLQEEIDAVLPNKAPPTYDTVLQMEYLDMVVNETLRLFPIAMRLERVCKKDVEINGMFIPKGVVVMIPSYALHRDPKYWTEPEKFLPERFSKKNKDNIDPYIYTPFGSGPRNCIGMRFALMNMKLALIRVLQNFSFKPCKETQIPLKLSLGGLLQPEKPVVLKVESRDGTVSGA
readout: Ki (µM)
Could you give me the number in µM? Just the number is fine.

I'd like to know its Ki. The molecule in question is O=c1ccc2cc3ccoc3c(O)c2o1 [xanthotoxol, Xanthotoxol]
2.22

* * *

# measured.on: CYP3A4 (Homo sapiens, UniProt P08684)
readout: pIC50
By convention, pIC50 is the negative base-10 log of a molar concentration.

Would you kindly share the measured pIC50 for O=c1ccc2cc3ccoc3c(O)c2o1 ?
5.13

* * *

# measured.on: UniProtKB P05177
# Sequence (P05177 1-516): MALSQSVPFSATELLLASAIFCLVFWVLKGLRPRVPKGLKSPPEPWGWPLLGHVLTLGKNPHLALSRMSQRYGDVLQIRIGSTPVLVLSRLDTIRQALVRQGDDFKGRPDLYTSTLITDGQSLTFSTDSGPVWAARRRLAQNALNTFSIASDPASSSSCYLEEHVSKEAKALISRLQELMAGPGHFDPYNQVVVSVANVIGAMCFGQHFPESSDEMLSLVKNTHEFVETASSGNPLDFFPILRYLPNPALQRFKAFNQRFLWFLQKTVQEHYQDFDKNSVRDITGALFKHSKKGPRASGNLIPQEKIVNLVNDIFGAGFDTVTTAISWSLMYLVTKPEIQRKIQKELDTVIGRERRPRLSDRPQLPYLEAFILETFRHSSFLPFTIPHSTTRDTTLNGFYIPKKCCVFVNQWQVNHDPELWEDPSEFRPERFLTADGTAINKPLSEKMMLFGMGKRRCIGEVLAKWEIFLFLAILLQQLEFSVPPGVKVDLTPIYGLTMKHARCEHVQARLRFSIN
readout: Ki (µM)
// return numeric value only (unit: µM, not printed)

Query (molecule): O=c1ccc2cc3ccoc3c(O)c2o1 ; field requested: Ki
21.1
